Target: Cytochrome P450 3A4 (Homo sapiens)
Sequence (P08684 whole entry): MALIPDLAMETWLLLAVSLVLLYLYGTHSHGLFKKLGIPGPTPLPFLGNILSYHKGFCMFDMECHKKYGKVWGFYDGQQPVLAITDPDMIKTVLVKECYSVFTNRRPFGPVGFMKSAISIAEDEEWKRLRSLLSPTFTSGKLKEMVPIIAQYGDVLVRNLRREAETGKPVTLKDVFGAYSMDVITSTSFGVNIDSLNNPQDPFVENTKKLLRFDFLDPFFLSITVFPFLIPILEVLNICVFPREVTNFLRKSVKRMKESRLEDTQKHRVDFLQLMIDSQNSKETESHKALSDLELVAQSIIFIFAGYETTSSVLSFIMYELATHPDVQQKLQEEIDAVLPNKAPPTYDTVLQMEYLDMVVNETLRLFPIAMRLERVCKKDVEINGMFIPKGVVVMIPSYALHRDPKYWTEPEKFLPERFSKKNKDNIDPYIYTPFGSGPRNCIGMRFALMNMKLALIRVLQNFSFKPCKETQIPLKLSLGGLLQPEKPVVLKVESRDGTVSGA
Test: Inhibition of human recombinant CYP3A4 expressed in baculovirus-infected insect microsomes
pIC50: −log10 of the molar value.
result.type: pIC50

> print(dat)
                                   compound  result.operator  recorded.measurement
1               O=C1CCc2cc(-c3cccnc3)ccc2N1                =                  3.90
2         O=C1CCc2cc(-c3cncc4ccccc34)ccc2N1                >                  4.30
3         COc1cncc(-c2ccc3c(c2)CCC(=O)C3)c1                =                  5.42
4  COC1CCc2cc(-c3cccnc3)ccc2C1 (stereo not given)                =                  4.91
5               O=C1CCc2cc(-c3cccnc3)ccc2C1                =                  5.21

====

Experiment: Tmax in Wistar rat at 5 mg/kg, po by cassette dosing
Type: ADME, organism-based
Design: dose 5 mg/kg, route oral
Details: in vivo
result.type: Tmax (h)

> print(dat)
                         smiles.repr  recorded.measurement
1         O=C1CCc2cc(-c3cccnc3)ccc21                     4
2     CN1C(=O)CCc2cc(-c3cccnc3)ccc21                     6
3        O=C1CCc2cc(-c3cccnc3)ccc2N1                     4
4        O=C1CCc2cc(-c3cccnc3)ccc2C1                     4
5  COc1cncc(-c2ccc3c(c2)CCC(=O)C3)c1                     4

====

Experiment: Cmax in Wistar rat at 25 mg/kg, po
Type: ADME, organism-based
Parameters: dose 25 mg/kg, route oral
Conditions: in vivo
Quick reference for Cmax among some compounds
result.type: Cmax

> print(dat)
                         smiles.repr  recorded.measurement
1  O=C1CCc2cc(-c3cncc4ccccc34)ccc2N1             134 ng/mL
2        O=C1CCc2cc(-c3cccnc3)ccc2N1            1540 ng/mL

====

Molecular target: Cytochrome P450 11B2, mitochondrial (Homo sapiens, UniProt P19099)
Sequence (P19099 whole entry): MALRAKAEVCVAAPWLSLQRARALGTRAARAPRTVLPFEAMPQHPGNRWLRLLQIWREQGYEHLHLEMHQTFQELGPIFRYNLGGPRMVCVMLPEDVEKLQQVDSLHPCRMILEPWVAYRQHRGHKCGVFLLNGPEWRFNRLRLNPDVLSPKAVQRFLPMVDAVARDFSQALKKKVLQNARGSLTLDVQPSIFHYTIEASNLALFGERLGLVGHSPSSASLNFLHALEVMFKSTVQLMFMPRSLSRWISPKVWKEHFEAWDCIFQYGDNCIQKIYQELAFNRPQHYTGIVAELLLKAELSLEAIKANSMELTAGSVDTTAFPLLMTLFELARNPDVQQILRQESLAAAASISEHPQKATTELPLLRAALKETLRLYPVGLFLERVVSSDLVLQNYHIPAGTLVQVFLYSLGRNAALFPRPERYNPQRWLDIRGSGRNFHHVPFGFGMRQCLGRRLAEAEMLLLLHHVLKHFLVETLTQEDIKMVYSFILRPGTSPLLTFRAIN
Assay: Inhibition of human CYP11B2 expressed in hamster V79 MZh cells at 500 nM
Type: cell-based
Details: V79MZh
Quick reference for inhibition at 0.5 µM among some molecules
result.type: inhibition at 0.5 µM (%)

> print(dat)
                                    molecule  unit.abbrev  recorded.measurement
 1                CN1CCOc2cc(-c3cccnc3)ccc21            %                    71
 2               O=C1CCc2cc(-c3cccnc3)ccc2C1            %                    97
 3         O=C1CCc2cc(-c3cncc4ccccc34)ccc2N1            %                    94
 4               c1cncc(-c2ccc3c(c2)CCCC3)c1            %                    82
 5             N#CC1=Cc2ccc(-c3cccnc3)cc2CC1            %                    97
 6           S=C1CCc2cc(-c3cccnc3)cc(Cl)c2N1            %                    97
 7  COC1CCc2cc(-c3cccnc3)ccc2C1 (stereo not given)            %                    97
 8         COc1cncc(-c2ccc3c(c2)CCC(=O)N3)c1            %                    91
 9  OC1CCc2cc(-c3cccnc3)ccc2C1 (stereo not given)            %                    86
10         COc1cncc(-c2ccc3c(c2)CCC(=O)C3)c1            %                    94
